Hello, the source for this data is ChEMBL document CHEMBL2417357, in case you need it.

Assay name: Selectivity index, ratio of IC50 for rat L6 cells to IC50 for chloroquine-resistant Plasmodium falciparum K1
Assay type: toxicity, cell-based
Test conditions: read-out: Ratio IC50
Endpoint label: selectivity ratio

Here's what some known entries look like.
- Substance smiles: "N=C(N)c1ccc(COc2cccc([N+](=O)[O-])c2)cc1"
  selectivity ratio: "< 18"
- Substance smiles: "CO/N=C(\\N)c1cccc(COc2ccc(/C(N)=N/OC)cc2Br)c1.Cl.Cl"
  selectivity ratio: "< 10"

Read the next record carefully.
Enquiry: Please give the measured selectivity ratio for this compound: CO/N=C(\N)c1cccc(COc2c(I)cc(/C(N)=N/OC)cc2I)c1.Cl.Cl
Return: < 4
